Tested on: Saccharomyces cerevisiae;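 note: PSI is a weighted mean of sequencing reads over stability bins, variants kept only with over 10 reads, mCherry proximal and sfGFP distal, peptide attached via GGGS linker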
assay_name: protein stability index of tFT-peptide fusion (C-terminal peptide) (PSI (0-1 scale)); higher = more stable (slower turnover)
settings: genetic background: doa10 deletion; temperature: 30 C
Rule: protein stability index under 0.3 gives -1, otherwise 1.

Query: Please check the record LLPSPLLLYSLS and state if its protein stability index is at or above 0.3.
Result: 1

Query: Given the entry LVVWASLVRVEG , answer whether its protein stability index meets or surpasses 0.3.
Result: -1

Query: API: above_or_equal(metric=protein stability index, cutoff=0.3) for item AWGSWTLCVAVH
Result: -1

Query: Identify whether the reported protein stability index of the following sequence is 0.3 or greater: VNRRCWISRTLP
Result: -1

Query: Decide: protein stability index of FCLLRYPFVGVL >= 0.3?
Result: -1

Query: Evaluate PPSPVPPIWYLA : protein stability index at minimum 0.3?
Result: -1

Query: Could you tell me if the measured protein stability index of LAVVCIHAVSSF reaches 0.3 or more?
Result: 1

Query: Is protein stability index at least 0.3? Consider TVETYNRARKAS
Result: -1

Query: Would you say FFGFFWLFLLFC shows protein stability index at minimum 0.3?
Result: 1

Query: Could you tell me if the measured protein stability index of CSSLIMIITCVN reaches 0.3 or more?
Result: -1

Query: Answer whether protein stability index of IKKKKRKKIKAN is greater than or equal to 0.3.
Result: -1

Query: Form field: protein stability index at least 0.3? Entry: LSLLCFVASVVA
Result: -1

Query: # bool: protein stability index of NVVIGLHLLVYI >= 0.3
Result: -1

Query: Decide: is the reported value of protein stability index for VLCFFWWWCRVC equal to or greater than 0.3?
Result: 1

Query: Reported protein stability index reaches at least 0.3 for LLSAFPYLPVFA ?
Result: -1

Query: Reported protein stability index at or above 0.3? KCWSGTVMVRLG
Result: -1

Query: Please check the record FVSSLLPLLTLL and state if its protein stability index is at or above 0.3.
Result: -1

Query: Answer whether protein stability index of KKKKNIKIKKQI is greater than or equal to 0.3.
Result: -1

Query: Exam item: decide whether the reported protein stability index for TYYPLNRSRFIG is at least 0.3.
Result: -1

Query: Is protein stability index at least 0.3? Consider GRWLYSACVALN
Result: -1

Query: Hello, I need to know if LCAFLKLFILII has measured protein stability index not below 0.3. Thanks!
Result: -1

Query: protein stability index >= 0.3 for SREQANTVYRLI ?
Result: -1

Query: Test whether the sequence FFCYFFEFFICG records protein stability index of 0.3 or higher.
Result: 1

Query: Decide: is the reported value of protein stability index for GVLHSKGPWFSG equal to or greater than 0.3?
Result: 1

Query: Tell me whether protein stability index is at least 0.3 here: PPRRCFPLLLFF
Result: -1

Query: Given LFFGFFLIYFLG , state whether its protein stability index is at least 0.3.
Result: -1

Query: Could you tell me if the measured protein stability index of PSDVLERVIRLL reaches 0.3 or more?
Result: -1

Query: Has DFPGDIILRLIA a recorded protein stability index greater than or equal to 0.3?
Result: -1

Query: Check if protein stability index >= 0.3 (inclusive). Item: VVLRCGCLVFIN
Result: -1

Query: Does the sequence KERHRNKRKQIA have recorded protein stability index that is 0.3 or more?
Result: -1

Query: Exam item: decide whether the reported protein stability index for VELRNCYLLVKA is at least 0.3.
Result: -1

Query: Does the sequence GWCLGFWCLLVC have recorded protein stability index that is 0.3 or more?
Result: -1

Query: Could you verify whether the entry GIFVRIVCIDVA shows protein stability index of no less than 0.3?
Result: -1

Query: Does the sequence CCLGVIASFIVW have recorded protein stability index that is 0.3 or more?
Result: -1

Query: Is the recorded value of protein stability index equal to or greater than 0.3 for this sequence? NFTDMGRSLYIN
Result: -1

Query: Check this sequence for protein stability index at or above 0.3: VFYWVGVLCGWG
Result: -1

Query: Given the entry FSIFFFLLPSSL , answer whether its protein stability index meets or surpasses 0.3.
Result: 1

Query: protein stability index >= 0.3 for PVLYSFSLWIHL ?
Result: -1
